Taken from PubChem BioAssay (NCI).

System: MDA-MB-231 breast
Experiment: NCI tumour cell line growth inhibition, 48 h; in the data active = GI50 below about 0.43 µM; inactive = the rest
Please reply with one of these outcomes: active, inactive

1) CCN(CC)c1ccc2nc3ccc(N=Nc4ccc(N(C)C)cc4)cc3[n+](-c3ccccc3)c2c1 = active

Q: Hey, what did the test say about COc1cc(/C=C2\C(=O)N(Cc3ccc(Cl)cc3)c3ccccc32)cc(OC)c1OC ?
Result: inactive

Q: Hey, what did the test say about CC1CC2C3CCC4=CC(=O)C=CC4(C)C3(F)C(O)CC2(C)C1(O)C(=O)COP(=O)(O)O (centres undefined) ?
Result: inactive

Q: Hey, what did the test say about COc1ccc(-c2cc(-c3ccc(Nc4nc(Nc5ccccc5)nc(Nc5ccc(Cl)cc5)n4)cc3)nc(N)n2)cc1 ?
Result: inactive

Q: Hey, what did the test say about c1ccc(-c2oc(-c3ccccc3)c(CN3CCCCC3)c2CN2CCCCC2)cc1 ?
Result: inactive

Q: Hey, what did the test say about O=C(Nc1ccc(Oc2ccc3nc(NC(=O)c4ccco4)[nH]c3c2)cc1)Nc1cc(C(F)(F)F)ccc1F ?
Result: inactive

----------
Parameter TGI: see the listing below.
Tested on: CCRF-CEM leukemia
Assay: NCI tumour cell line growth inhibition, 48 h

// below: answered compounds
1) N#CCn1c(=O)c(Oc2ccc(F)cc2F)cc2cnc(NC3CCOCC3)nc21 = > 25 µM
2) Cc1cc(=O)oc2ccc(OC/C=C3\CCC(=O)O3)cc12 = 7.96 µM
3) Cn1c(CBr)nc2c1C(=O)c1nc(CBr)[nH]c(=O)c1C2=O = > 100 µM
4) CC(C)(C)N=CN1C=Cc2nc3ccccc3cc2C1 = > 100 µM
5) S=c1sc2c(s1)SC(c1ccccc1)CS2 (configuration not stated) = > 100 µM
6) O=C(CNc1ccccn1)Nn1cnc2ccc(S(=O)(=O)Nc3ccccn3)cc2c1=O = > 100 µM
7) C#CC[C@@H]1C(=O)N(Cc2ccc(OC)cc2)[C@@H](C(C)C)C(=O)N1Cc1ccc(OC)cc1 = 36.2 µM
8) O=C1C(c2ccccc2)=C(c2ccccc2)C(c2ccc(Cc3ccc(C4=C(c5ccccc5)C(=O)C(c5ccccc5)=C4c4ccccc4)cc3)cc2)=C1c1ccccc1 = > 100 µM

Q: Given Oc1ccc(Br)cc1C=Nc1cccc(C(F)(F)F)c1 , respond with its TGI.
Result: 28.5 µM

Q: Given Clc1nccc2c(-c3csc(-c4c[nH]c5ccc(Br)cc45)n3)c[nH]c12 , respond with its TGI.
Result: 20.9 µM

Q: Given CCc1n[nH]c(=O)n1CCCCCCCCn1c(CC)n[nH]c1=O , respond with its TGI.
Result: > 100 µM

Q: Given O=Cc1c[nH]c2c(=O)[nH]cnc12 , respond with its TGI.
Result: > 100 µM

Q: Given COc1cc(OC2OC(CO)C(O)C(O)C2O)c2c(O)c3c(=O)cc(C)oc3cc2c1 (configuration not stated) , respond with its TGI.
Result: > 100 µM

Q: Given COc1ccc(C2c3cc4c(cc3OC(NNc3ccccc3)C2C)OCO4)cc1 (configuration not stated) , respond with its TGI.
Result: 40.5 µM

----------
Parameter TGI: see the listing below.
Test system: SNB-75 CNS
Assay: NCI tumour cell line growth inhibition, 48 h

// below: answered compounds
1) COc1cc2c(c(OC)c1OC)-c1ccc(NN(C(=O)c3ccccc3)C(=O)c3ccccc3)c(=O)cc1[C@@H](NC(C)=O)CC2 (tested in a mixture with another compound) = > 100 µM
2) COc1ccc(C(O)c2cc3c(N)c(C(=O)Nc4ccc(Cl)cc4)sc3nc2C)cc1 (stereo not drawn) = 7.25 µM
3) C=CCCC1(O)C(O)C(CO)O[C@H](O[C@@]2(CO)OC(CO)C(O)C2O)C1O (stereo partly drawn) = > 100 µM
4) CN(C)c1ccc(/C=C\c2ccnc3ccccc23)cc1 = 8.97 µM

Q: Given CC(C)(O)/C1=C/C=C/CCCCCCCCCC1 , respond with its TGI.
Result: 2.85 µM

Q: Given CC(=O)C1CCN(c2ccccc2)C1 (stereo not drawn) , respond with its TGI.
Result: > 100 µM
